biological target: human soluble guanylate cyclase alpha 1 and beta 1 subunits (sGC) stably expressed in Chinese hamster ovary cells (Homo sapiens, UniProt Q02108+Q02153); construct: expressed in transfected cells; host or cells: Chinese hamster ovary cells, stably transfected; test: sGC cellular activator assay: cGMP in CHO cells expressing human sGC, preincubated with ODQ; type: cell-based; conditions: 40 microM ODQ preincubation, 30 min at room temperature, presence or absence of 50% human serum not given, read-out: EC50 nM, Activity of Compounds in Cellular Assay
We label by threshold. Values of EC50 strictly beneath 100 nM are Met. Values of 100 nM and up are Not met.

molecule	group label
Cc1ccc(OCc2ccc(CN3CCN(C(C)C)C(=O)C3)cc2C)c(-c2csc(N3CC4CCC(C3)C4C(=O)O)n2)c1 (stereo not drawn)	Met
Cc1ccc(OCc2ccc(CN3CCS(=O)(=O)CC3)cc2C)c(-c2csc(N3CC[C@@]4(C(=O)O)C[C@H]4C3)n2)c1	Met
Cc1ccc(OCc2ccc(CN3CCOCC3)cc2C)c(-c2csc(N3C[C@H]4C[C@@H](C3)[C@H]4C(=O)O)n2)c1	Not met
Cc1ccc(OCc2ccc(C(=O)N3CCCOCC3)cc2C)c(-c2csc(N3C[C@H]4CC[C@@H](C3)[C@H]4C(=O)O)n2)c1	Met
Cc1ccc(OCc2ccc(C(=O)N3CCCCCC3)cc2C)c(-c2csc(N3C[C@H]4CC[C@@H](C3)[C@H]4C(=O)O)n2)c1	Met

###

EC50 values by entry
target: Recombinant human soluble guanylate cyclase (sGC), alpha 1 / beta 1 subunits, heme-free (Homo sapiens, UniProt Q02108+Q02153); construct: histidine tag (C); made in house; host or cells: Sf9 insect cells (baculovirus coinfection); test: Molecular assay: cGMP formation by heme-free recombinant sGC (CisBio cGMP detection kit); assay type: biochemical; details: 300 pM heme-free sGC, 37° C., 60 min, cGMP readout; read-out: EC50 nM, Activity of Compounds in Molecular Assay

compound	EC50, nM
Cc1cc(CN2CCS(=O)(=O)CC2)ccc1COc1ccc(F)cc1-c1csc(N2CC3CCC(C2)C3C(=O)O)n1 (stereo not shown)	1800
Cc1ccc(OCc2ccc(CN3CCOCC3)cc2C)c(-c2csc(N3CCCC(C(=O)O)C3)n2)c1 (stereo not shown)	1600
Cc1cc(CN2CCS(=O)(=O)CC2)ccc1COc1c(C)cccc1-c1csc(N2C[C@H]3CC[C@@H](C2)[C@H]3C(=O)O)n1	23
Cc1ccc(OCc2ccc(C(=O)N3CCS(=O)(=O)CC3)cc2C)c(-c2csc(N3CCC(C(=O)O)CC3)n2)c1	81

###

experiment: Assessment of solubility: HT solubility in pION buffer, UV spectrophotometry; conditions: pION system solution buffer, pH 4.5, pH 4.5, aqueous buffer, kinetic from dmso stock, Solubility (pH 4.5), pH 4.5 buffer, 16-19 h incubation, 1.0% DMSO
solubility values by entry

compound	solubility [µg/mL]
Cc1ccc(OCc2ccc(C(=O)N(C)Cc3ncc[nH]3)cc2C)c(-c2csc(N3C[C@H]4CC[C@@H](C3)[C@H]4C(=O)O)n2)c1	11
Cc1ccc(OCc2ccc(CN3CCOCC3)cc2C)c(-c2csc(N3CC[C@@H](C(=O)O)[C@H]3C)n2)c1	53
Cc1ccc(OCc2ccc(C(=O)N3CCCCC3)cc2C)c(-c2csc(N3CCC(C(=O)O)C(C(F)(F)F)C3)n2)c1 (stereo not drawn)	2
Cc1cc(C(=O)N2CCCCC2)ccc1COc1ccc(F)cc1-c1csc(N2CCC(C(=O)O)CC2C)n1 (stereo not drawn)	0.25
CCN(CCO)C(=O)c1ccc(COc2ccc(C)cc2-c2csc(N3C[C@H]4CC[C@@H](C3)[C@H]4C(=O)O)n2)c(C)c1	0.32
Cc1ccc(OCc2ccc(C(=O)N3CCCCC3)cc2C)c(-c2csc(N3CCC(C(=O)O)C(C)C3)n2)c1 (stereo not drawn)	42
Cc1ccc(OCc2ccc(CN3CCOCC3)cc2C)c(-c2csc(N3CC4(CC4C(=O)O)C3)n2)c1 (stereo not drawn)	56
Cc1cc(CN2CCOCC2)ccc1COc1ccccc1-c1csc(N2CCC(C(=O)O)CC2C(F)(F)F)n1 (stereo not drawn)	30
Cc1ccc(OCc2ccc(CN3CCOCC3)cc2OC(F)(F)F)c(-c2csc(N3C[C@H]4CC[C@@H](C3)[C@H]4C(=O)O)n2)c1	0.72
Cc1cc(C(=O)N2CCCCC2)ccc1COc1ccc(Cl)cc1-c1csc(N2CCC(C(=O)O)CC2)n1	3.7
Cc1ccc(OCc2ccc(C(=O)N3CCNC(=O)C3)cc2C)c(-c2csc(N3C[C@H]4CC[C@@H](C3)[C@H]4C(=O)O)n2)c1	2.4
Cc1cc(C(=O)N2CCCCC2)ccc1COc1ccccc1-c1csc(N2CCC(C(=O)O)CC2)n1	0.7
Cc1cc(CN2CCS(=O)(=O)CC2)ccc1COc1ccc(F)cc1-c1csc(N2CC3CCC(C2)C3C(=O)O)n1 (stereo not drawn)	0.6
Cc1ccc(OCc2ccc(C(=O)N3CCCCC3)cc2C)c(-c2csc(N3CCC(C(=O)O)CC3C)n2)c1 (stereo not drawn)	1.9
Cc1ccc(OCc2ccc(CN3CCOCC3)cc2C)c(-c2csc(N3C[C@@H]4[C@H](C3)[C@@H]4C(=O)O)n2)c1	62
Cc1ccc(OCc2ccc(CN3CCS(=O)(=O)CC3)cc2C)c(-c2csc(N3CCCC(C(=O)O)CC3)n2)c1 (stereo not drawn)	3.3
Cc1ccc(OCc2ccc(CN3CCOCC3)cc2C)c(-c2csc(N3CC(CC(=O)O)C3)n2)c1	40
Cc1cc(CN2CCOCC2)ccc1COc1ccc(Cl)cc1-c1csc(N2C3CCC2CC(C(=O)O)C3)n1 (stereo not drawn)	20
Cc1ccc(OCc2ccc(C(=O)N3CCCCC3)cc2C#N)c(-c2csc(N3C[C@H]4CC[C@@H](C3)[C@H]4C(=O)O)n2)c1	0.3
Cc1ccc(OCc2c(C)cc(C(=O)N3CCN(C)C(=O)C3)cc2C)c(-c2csc(N3C[C@H]4CC[C@@H](C3)[C@H]4C(=O)O)n2)c1	0.65
Cc1ccc(OCc2ccc(C(=O)N3CCOCC3)cc2C)c(-c2csc(N3C[C@@H]4[C@H](C3)[C@@H]4C(=O)O)n2)c1	46
Cc1cc(C(=O)N2CCCCC2)ccc1COc1ccc(Cl)cc1-c1csc(N2C3CCC2CC(C(=O)O)C3)n1 (stereo not drawn)	0.25
Cc1cc(C(=O)N2CCCCC2)ccc1COc1c(C)cccc1-c1csc(N2C[C@H]3CC[C@@H](C2)[C@H]3C(=O)O)n1	0.3

###

Molecular target: human soluble guanylate cyclase alpha 1 and beta 1 subunits (sGC) stably expressed in Chinese hamster ovary cells (Homo sapiens, UniProt Q02108+Q02153)
Construct: expressed in transfected cells; host or cells: Chinese hamster ovary cells, stably transfected
Sequence (Q02108 1-690 partner): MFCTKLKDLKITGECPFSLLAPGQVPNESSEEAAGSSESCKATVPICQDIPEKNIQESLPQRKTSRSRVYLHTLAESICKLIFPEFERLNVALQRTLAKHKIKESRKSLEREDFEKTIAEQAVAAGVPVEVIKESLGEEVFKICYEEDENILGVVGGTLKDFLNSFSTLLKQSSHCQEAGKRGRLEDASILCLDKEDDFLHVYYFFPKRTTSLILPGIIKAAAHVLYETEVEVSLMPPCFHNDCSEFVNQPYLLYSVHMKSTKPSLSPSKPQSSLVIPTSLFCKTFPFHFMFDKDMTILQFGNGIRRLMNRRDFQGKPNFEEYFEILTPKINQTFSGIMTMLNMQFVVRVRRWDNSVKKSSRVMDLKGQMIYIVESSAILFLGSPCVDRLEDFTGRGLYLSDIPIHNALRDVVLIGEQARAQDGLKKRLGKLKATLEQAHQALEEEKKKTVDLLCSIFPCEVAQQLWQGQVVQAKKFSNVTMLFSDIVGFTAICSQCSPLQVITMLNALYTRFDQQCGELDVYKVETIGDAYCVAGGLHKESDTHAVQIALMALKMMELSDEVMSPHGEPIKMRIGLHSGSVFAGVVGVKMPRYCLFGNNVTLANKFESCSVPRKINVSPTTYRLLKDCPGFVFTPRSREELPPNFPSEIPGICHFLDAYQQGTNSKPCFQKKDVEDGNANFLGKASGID
Sequence (Q02153 1-619): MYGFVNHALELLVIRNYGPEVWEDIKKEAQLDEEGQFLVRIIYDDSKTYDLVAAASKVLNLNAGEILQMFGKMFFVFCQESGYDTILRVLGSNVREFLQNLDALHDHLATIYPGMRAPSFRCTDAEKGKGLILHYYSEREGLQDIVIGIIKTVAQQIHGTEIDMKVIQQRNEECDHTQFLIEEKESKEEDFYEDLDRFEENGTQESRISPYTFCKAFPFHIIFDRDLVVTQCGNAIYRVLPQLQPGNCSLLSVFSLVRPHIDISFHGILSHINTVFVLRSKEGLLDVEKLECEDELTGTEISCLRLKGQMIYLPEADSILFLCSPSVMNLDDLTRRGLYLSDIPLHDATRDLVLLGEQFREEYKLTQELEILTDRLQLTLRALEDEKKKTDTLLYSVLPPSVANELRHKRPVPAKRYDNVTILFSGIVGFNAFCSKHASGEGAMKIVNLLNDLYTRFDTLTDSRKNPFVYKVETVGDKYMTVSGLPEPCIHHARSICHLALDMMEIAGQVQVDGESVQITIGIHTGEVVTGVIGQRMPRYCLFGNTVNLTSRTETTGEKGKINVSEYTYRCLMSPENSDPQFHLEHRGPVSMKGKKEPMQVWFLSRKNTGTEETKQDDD
Assay: sGC cellular activator assay: cGMP in CHO cells expressing human sGC, preincubated with ODQ
Assay type: cell-based
Details: 40 microM ODQ preincubation, 30 min at room temperature, presence or absence of 50% human serum not given, read-out: EC50 nM, Activity of Compounds in Cellular Assay
EC50 values by entry

molecule	EC50 / nM
Cc1ccc(OCc2ccc(C(=O)N3CCOCC3)cc2C#N)c(-c2csc(N3C[C@H]4CC[C@@H](C3)[C@H]4C(=O)O)n2)c1 [Compound 266]	42
Cc1cc(C(=O)N2CCCCC2)ccc1COc1ccc(C#N)cc1-c1csc(N2CCC(C(=O)O)CC2)n1 [Compound 274]	600
Cc1ccc(OCc2ccc(C(=O)N3CCC(F)(F)C3)cc2C)c(-c2csc(N3C[C@H]4CC[C@@H](C3)[C@H]4C(=O)O)n2)c1 [Compound 320]	15
Cc1cc(C(=O)N2CCCCC2)ccc1COc1c(C)cccc1-c1csc(N2C3CCC2CC(C(=O)O)C3)n1 (stereo not shown) [Compound 209]	96
Cc1ccc(OCc2ccc(C(=O)N3CCCCC3)c(C)c2)c(-c2csc(N3C[C@H]4CC[C@@H](C3)[C@H]4C(=O)O)n2)c1 [Compound 283]	60
Cc1cc(CN2CCS(=O)(=O)CC2)ccc1COc1ccccc1-c1csc(N2CCC(C(=O)O)CC2)n1 [Compound 272]	110
Cc1ccc(OCc2ccc(C(=O)N3CCOCC3)cc2C)c(-c2csc(N3C[C@H]4CC[C@@H](C3)[C@H]4C(=O)O)n2)c1 [Compound 268]	7.3
Cc1ccc(OCc2ccc(C(=O)N(C)C)cc2C)c(-c2csc(N3C[C@H]4CC[C@@H](C3)[C@H]4C(=O)O)n2)c1 [Compound 304]	23
Cc1ccc(OCc2ccc(CN3CCN(C)C(=O)C3)cc2C)c(-c2csc(N3C[C@H]4CC[C@@H](C3)[C@@]4(C)C(=O)O)n2)c1 [Compound 269]	9.5
Cc1ccc(OCc2ccc(CN3CCS(=O)(=O)CC3)cc2C#N)c(-c2csc(N3C[C@H]4CC[C@@H](C3)[C@H]4C(=O)O)n2)c1 [Compound 267]	44
Cc1ccc(OCc2ccc(CN3CCOCC3C)cc2C#N)c(-c2csc(N3C[C@H]4CC[C@@H](C3)[C@H]4C(=O)O)n2)c1 (stereo partly shown) [Compound 359]	36
Cc1ccc(OCc2ccc(C(=O)N(C)CC(=O)N(C)C)cc2C)c(-c2csc(N3C[C@H]4CC[C@@H](C3)[C@H]4C(=O)O)n2)c1 [Compound 345]	130
CCN(CCC#N)C(=O)c1ccc(COc2ccc(C)cc2-c2csc(N3C[C@H]4CC[C@@H](C3)[C@H]4C(=O)O)n2)c(C)c1 [Compound 307]	24

Provenance of the data: patent US8815857B2
